Where these numbers come from: patent US7879887B2

- Measured target: recombinant human βARK1 (Homo sapiens)
- Sequence (P25098 whole entry): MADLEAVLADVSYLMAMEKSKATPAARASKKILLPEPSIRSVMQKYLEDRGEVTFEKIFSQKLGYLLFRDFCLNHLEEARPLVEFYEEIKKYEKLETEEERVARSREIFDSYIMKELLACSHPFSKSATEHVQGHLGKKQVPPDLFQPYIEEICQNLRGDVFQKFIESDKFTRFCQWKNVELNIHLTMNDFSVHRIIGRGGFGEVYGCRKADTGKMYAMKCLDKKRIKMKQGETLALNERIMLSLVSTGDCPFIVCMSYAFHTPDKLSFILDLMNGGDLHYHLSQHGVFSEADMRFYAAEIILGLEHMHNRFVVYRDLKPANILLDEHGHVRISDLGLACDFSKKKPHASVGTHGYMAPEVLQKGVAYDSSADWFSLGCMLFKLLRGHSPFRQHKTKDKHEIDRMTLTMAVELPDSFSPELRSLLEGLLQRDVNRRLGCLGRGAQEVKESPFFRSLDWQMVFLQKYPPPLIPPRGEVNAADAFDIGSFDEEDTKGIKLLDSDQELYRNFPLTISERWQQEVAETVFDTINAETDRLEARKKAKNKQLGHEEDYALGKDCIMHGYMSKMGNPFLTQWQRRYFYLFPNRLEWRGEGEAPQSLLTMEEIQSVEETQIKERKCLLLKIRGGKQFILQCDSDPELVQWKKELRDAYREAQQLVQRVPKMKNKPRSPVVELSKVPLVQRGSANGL
- Measurement protocol: Inhibitory activity against βARK1 (33P phosphorylation of synthetic peptide)
- Test context: recombinant human βARK1, 60 minutes at room temperature
Quantity measured: pIC50
pIC50 (log units): -log10 of the concentration in mol/L.

Worked set:
>  <Compound>
CC(=O)Nc1cc(NC(C)(C)C(=O)Nc2nc3c(C(F)(F)F)cc4[nH]ncc4c3s2)ccc1F

>  <pIC50>
8.08

$$$$
>  <Compound>
CNC(=O)c1cc(NC(C)(C)C(=O)Nc2nc3c(C(F)(F)F)cc4[nH]ncc4c3s2)ccc1Cl

>  <pIC50>
8.20

$$$$
>  <Compound>
CC(C)(Nc1ccc(Cl)c(C(=O)NCCCC(=O)O)c1)C(=O)Nc1nc2c(C(F)(F)F)cc3[nH]ncc3c2s1

>  <pIC50>
8.11

$$$$
>  <Compound>
CC(C)(Nc1ccc(Cl)cc1)C(=O)Nc1nc2ccc3[nH]ncc3c2s1

>  <pIC50>
8.06

$$$$

(Q) Suppose we examine the compound CCC(=O)Nc1cc(NC(C)(C)C(=O)Nc2nc3ccc4[nH]ncc4c3s2)ccc1Cl ; what pIC50 value has been reported?
(A) 8.41

(Q) Suppose we examine the compound CCNC(=O)c1cc(NC(C)(C)C(=O)Nc2nc3c(C(F)(F)F)cc4[nH]ncc4c3s2)ccc1Cl ; what pIC50 value has been reported?
(A) 8.35

(Q) Suppose we examine the compound CCC(=O)Nc1cc(NC(C)(C)C(=O)Nc2nc3c(C(F)(F)F)cc4[nH]ncc4c3s2)ccc1Cl ; what pIC50 value has been reported?
(A) 8.49

(Q) Suppose we examine the compound CC(Nc1ccc(Cl)cc1)C(=O)Nc1nc2ccc3[nH]ncc3c2s1 (stereo not shown) ; what pIC50 value has been reported?
(A) 8.10

(Q) Suppose we examine the compound O=C(CNc1ccc(Cl)c(O)c1)Nc1nc2ccc3[nH]ncc3c2s1 ; what pIC50 value has been reported?
(A) 8.40

(Q) Suppose we examine the compound CC(C)(Nc1ccc(Cl)c(C(=O)NCC(=O)O)c1)C(=O)Nc1nc2c(C(F)(F)F)cc3[nH]ncc3c2s1 ; what pIC50 value has been reported?
(A) 8.11

(Q) Suppose we examine the compound O=C(Nc1nc2ccc3[nH]ncc3c2s1)C(CO)Nc1ccc(Cl)cc1 (stereo not shown) ; what pIC50 value has been reported?
(A) 8.11

(Q) Suppose we examine the compound CC(C)(Nc1ccc(Cl)c(-n2cc[nH]c2=O)c1)C(=O)Nc1nc2c(C(F)(F)F)cc3[nH]ncc3c2s1 ; what pIC50 value has been reported?
(A) 7.92

(Q) Suppose we examine the compound CCC(=O)Nc1cc(NC2(C(=O)Nc3nc4ccc5[nH]ncc5c4s3)CC2)ccc1F ; what pIC50 value has been reported?
(A) 8.34

(Q) Suppose we examine the compound CCC(=O)Nc1cc(NC(C)(C)C(=O)Nc2nc3c(C(F)(F)F)cc4[nH]ncc4c3s2)ccc1F ; what pIC50 value has been reported?
(A) 8.03

(Q) Suppose we examine the compound CC(C)(Nc1ccc(Cl)c(C(=O)NCCC(=O)O)c1)C(=O)Nc1nc2c(C(F)(F)F)cc3[nH]ncc3c2s1 ; what pIC50 value has been reported?
(A) 8.10

(Q) Suppose we examine the compound CC(C)(Nc1ccc(Cl)c(O)c1)C(=O)Nc1nc2c(C(F)(F)F)cc3[nH]ncc3c2s1 ; what pIC50 value has been reported?
(A) 8.06
